target: CB1 receptor (Homo sapiens, UniProt P21554); test: GTPγ[35S] functional binding assay, CB1 membranes; conditions: GTPγ[35S] binding, n.a. = no activity detected at the highest concentration tested, read-out: CB1 EC 50
Sequence (P21554 whole entry): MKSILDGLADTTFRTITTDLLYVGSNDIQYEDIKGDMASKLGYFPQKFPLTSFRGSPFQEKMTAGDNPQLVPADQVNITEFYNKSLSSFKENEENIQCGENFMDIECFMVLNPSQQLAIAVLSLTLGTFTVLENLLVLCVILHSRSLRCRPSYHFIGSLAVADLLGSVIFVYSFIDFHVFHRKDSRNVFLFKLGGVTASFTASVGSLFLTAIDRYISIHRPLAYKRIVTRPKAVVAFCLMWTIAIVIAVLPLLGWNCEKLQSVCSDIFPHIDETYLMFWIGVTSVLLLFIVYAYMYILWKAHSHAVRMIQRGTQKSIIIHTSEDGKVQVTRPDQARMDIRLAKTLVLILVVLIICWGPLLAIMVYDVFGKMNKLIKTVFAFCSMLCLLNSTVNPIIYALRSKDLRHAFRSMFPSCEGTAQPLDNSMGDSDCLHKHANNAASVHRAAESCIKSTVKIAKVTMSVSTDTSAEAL
Reported property: pEC50
On this scale, pEC50 is minus log10 of a concentration expressed in M (mol/L).

Below, each entry is followed by its recorded pEC50 result.
1. O=C(Nc1sc2c(c1C(=O)N1CCCCC1)CCCCC2)[C@H]1CCCN1S(=O)(=O)c1ccc(F)cc1	5.72
2. O=C(Nc1sc2c(c1C(=O)N1CCCCC1)CCCCC2)[C@H]1CCCN1S(=O)(=O)c1ccccc1	6.15

Alright, here's another compound for you.
Request: Item O=C(Nc1sc2c(c1C(=O)N1CCCCC1)CCCCC2)[C@H]1CCCN1S(=O)(=O)c1cccs1 : provide pEC50
Result: 6.37
